assayed_target: T1, hCMV gH + gL + UL128 + UL130 + UL131A (5-member complex; HEK293T co-transfectant) (hCMV, UniProt P12824 24-743; P16832 31-278; P16837 1-171; P16772 1-214)
T1 construct: whole, on cells; in the functional rows it stands for the complex on virions or transduced cells of the strain or isolate named in the readout; also called gH/gL/UL128-131A complex; pentameric complex
assay_protocol: cell competition; competitor 4N10-biotin
readout_kind: Inhibition of binding (%)

{"binder": "10F7 (antibody, V domains shown, human IgG; also called 10F7-biotin) VH: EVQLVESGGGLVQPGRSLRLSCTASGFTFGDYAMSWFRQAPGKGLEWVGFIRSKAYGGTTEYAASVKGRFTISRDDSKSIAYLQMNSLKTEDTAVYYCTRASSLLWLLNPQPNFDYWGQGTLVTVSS VL: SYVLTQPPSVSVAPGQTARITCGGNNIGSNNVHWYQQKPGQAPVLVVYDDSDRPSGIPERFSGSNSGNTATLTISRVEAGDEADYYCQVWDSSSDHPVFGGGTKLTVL", "value_measured": 0}
